system: YNL142W; assay: GFP reporter expression in TORC1-bypass yeast, mechanism study for yeast TOR pathway modulator project, S. cerevisiae, TORC1 bypass vs wild-type strains (AID 504479); conditions: fluorescence ratio vs DMSO, MEP2-GFP in TORC1 bypass strain, at 10 µM, stronger effect = higher value
Mark Satisfied for reported GFP ratio vs DMSO of 1 or greater; mark Not satisfied for anything smaller.

>  <MOLECULE>
CC(C)(C)n1nc(-c2ccc(Cl)cc2)c2c(N)ncnc21

>  <GROUP_LABEL>
Not satisfied

$$$$
>  <MOLECULE>
CCOC(=O)c1c(C)oc2c1c(C(c1cccnc1)N1CCOCC1)c(O)c1ccccc12 (stereo unspecified)

>  <GROUP_LABEL>
Satisfied

$$$$
>  <MOLECULE>
CCCCC(=O)NNC(=S)NC(=O)c1ccc(C)cc1

>  <GROUP_LABEL>
Satisfied

$$$$
>  <MOLECULE>
Cc1ccc(C2=NOC(=O)/C2=C\c2ccc(C)o2)cc1

>  <GROUP_LABEL>
Satisfied

$$$$
>  <MOLECULE>
CC(=O)SC(C[N+](=O)[O-])c1cn(C(C)=O)c2ccccc12 (stereo unspecified)

>  <GROUP_LABEL>
Not satisfied

$$$$
>  <MOLECULE>
CC1=NN(c2ccccc2)C(=O)C1C(c1ccccc1[N+](=O)[O-])C(C#N)C#N (stereo unspecified)

>  <GROUP_LABEL>
Not satisfied

$$$$
>  <MOLECULE>
Cc1ccc(S(=O)(=O)c2ccc([N+](=O)[O-])cn2)cc1

>  <GROUP_LABEL>
Not satisfied

$$$$
>  <MOLECULE>
CC(C)(C)C(=O)C(Cl)C(=O)Nc1ccccc1 (stereo unspecified)

>  <GROUP_LABEL>
Not satisfied

$$$$
>  <MOLECULE>
COc1ccc(/C=C/C(=O)NC(=S)NNC(=O)c2cnccn2)cc1

>  <GROUP_LABEL>
Satisfied

$$$$

###

system: YKL103C; test: GFP reporter expression in TORC1-bypass yeast, mechanism study for yeast TOR pathway modulator project, S. cerevisiae, TORC1 bypass vs wild-type strains (AID 504479); conditions: fluorescence ratio vs DMSO, LAP4-GFP in TORC1 bypass strain, at 10 µM, stronger effect = higher value
VALUE_TYPE: GFP ratio vs DMSO

>  <MOLECULE>
CO[C@H]1C[C@@H]2CC[C@@H](C)[C@@](O)(O2)C(=O)C(=O)N2CCCC[C@H]2C(=O)O[C@H]([C@H](C)C[C@@H]2CC[C@@H](O)[C@H](OC)C2)CC(=O)[C@H](C)/C=C(\C)[C@@H](O)[C@@H](OC)C(=O)[C@H](C)C[C@H](C)/C=C/C=C/C=C/1C

>  <ENDPOINT_VALUE>
1.17

$$$$
>  <MOLECULE>
CCCCC(=O)NNC(=S)NC(=O)c1ccc(C)cc1

>  <ENDPOINT_VALUE>
2.03

$$$$
>  <MOLECULE>
CCc1ccc(OCC(=O)NNC(=S)NC(=O)C2CC2)c(Br)c1

>  <ENDPOINT_VALUE>
1.3

$$$$
>  <MOLECULE>
O=[N+]([O-])c1cc(O)c2ncccc2c1

>  <ENDPOINT_VALUE>
1.29

$$$$
>  <MOLECULE>
Cc1ccc(S(=O)(=O)c2ncccc2[N+](=O)[O-])cc1

>  <ENDPOINT_VALUE>
1.5

$$$$
>  <MOLECULE>
Cc1cc(C(=O)Nc2nc(-c3ccccn3)cs2)ccc1[N+](=O)[O-]

>  <ENDPOINT_VALUE>
0.998

$$$$
>  <MOLECULE>
O=C1ON=C(c2ccccc2)/C1=C\c1ccco1

>  <ENDPOINT_VALUE>
1.26

$$$$
>  <MOLECULE>
COc1ccc([N+](=O)[O-])c(S(=O)(=O)c2ccc(Cl)cc2)n1

>  <ENDPOINT_VALUE>
1.92

$$$$
>  <MOLECULE>
CSC1=NS(=O)(=O)c2c(C)nn(C)c2S1

>  <ENDPOINT_VALUE>
1.06

$$$$
>  <MOLECULE>
O=C(OCn1ncc(Br)c(Br)c1=O)c1ccc(F)cc1

>  <ENDPOINT_VALUE>
1.67

$$$$
>  <MOLECULE>
O=C(Oc1c(Cl)cc(Cl)c2cccnc12)c1cccc([N+](=O)[O-])c1

>  <ENDPOINT_VALUE>
1.15

$$$$
>  <MOLECULE>
O=C(CCc1ccccc1)NNC(=S)NC(=O)c1ccccc1

>  <ENDPOINT_VALUE>
1.88

$$$$
>  <MOLECULE>
CC(=O)SC(C[N+](=O)[O-])c1cn(C(C)=O)c2ccccc12 (configuration not stated)

>  <ENDPOINT_VALUE>
1.4

$$$$
>  <MOLECULE>
Cc1ccc(C2=NOC(=O)/C2=C\c2ccc(C)o2)cc1

>  <ENDPOINT_VALUE>
0.971

$$$$
>  <MOLECULE>
Cc1ccc(C(c2cc(Cl)c3cccnc3c2O)N2CCN(C)CC2)cc1 (configuration not stated)

>  <ENDPOINT_VALUE>
1.23

$$$$
>  <MOLECULE>
CC(=O)c1ccc(N2CCN(C(=O)c3ccc(Br)cc3)CC2)c(F)c1

>  <ENDPOINT_VALUE>
1.27

$$$$
>  <MOLECULE>
N/C(Cc1ccc(Cl)cc1)=N\OC(=O)c1cccc2ccccc12

>  <ENDPOINT_VALUE>
0.525

$$$$
>  <MOLECULE>
O=[N+]([O-])c1ccc(S(=O)(=O)c2cccc(C(F)(F)F)c2)nc1

>  <ENDPOINT_VALUE>
1.63

$$$$
>  <MOLECULE>
CC1=NN(c2ccccc2)C(=O)C1C(c1ccccc1[N+](=O)[O-])C(C#N)C#N (configuration not stated)

>  <ENDPOINT_VALUE>
1.44

$$$$
>  <MOLECULE>
CC(C)(C)C(=O)NC(=S)NNC(=O)c1ccc(-c2ccccc2)cc1

>  <ENDPOINT_VALUE>
1.47

$$$$
>  <MOLECULE>
CC(C)(C)C(=O)C(Cl)C(=O)Nc1ccccc1 (configuration not stated)

>  <ENDPOINT_VALUE>
1.5

$$$$
>  <MOLECULE>
Cc1ccc(S(=O)(=O)c2ccc([N+](=O)[O-])cn2)cc1

>  <ENDPOINT_VALUE>
1.67

$$$$
>  <MOLECULE>
Cn1ncc(S(=O)(=O)Cc2ccccc2)c(Cl)c1=O

>  <ENDPOINT_VALUE>
1.56

$$$$
>  <MOLECULE>
CCCOc1ccc(C(=O)NNC(=S)NC(=O)CC)cc1

>  <ENDPOINT_VALUE>
1.92

$$$$
>  <MOLECULE>
O=[N+]([O-])c1ccc(O)c2ncccc12

>  <ENDPOINT_VALUE>
1.88

$$$$
>  <MOLECULE>
O=C(NC(=S)NNC(=O)c1cnccn1)c1ccc(F)cc1

>  <ENDPOINT_VALUE>
1.35

$$$$
>  <MOLECULE>
COc1ccc(C(=O)NNC(=S)NC(=O)/C=C/c2cccs2)cc1

>  <ENDPOINT_VALUE>
1.16

$$$$
>  <MOLECULE>
Cc1ccc(C(=O)NNC(=S)NC(=O)COc2ccccc2)cc1

>  <ENDPOINT_VALUE>
1.45

$$$$
>  <MOLECULE>
c1ccc(-c2cccc(-c3ccccn3)n2)nc1

>  <ENDPOINT_VALUE>
1.2

$$$$
>  <MOLECULE>
Clc1ccc(N=c2ssnc2Cl)cc1

>  <ENDPOINT_VALUE>
1.29

$$$$
>  <MOLECULE>
COc1ccc(/C=C/C(=O)NC(=S)NNC(=O)c2cnccn2)cc1

>  <ENDPOINT_VALUE>
1.18

$$$$
>  <MOLECULE>
O=C(Oc1c(Cl)cc(Cl)c2cccnc12)c1ccco1

>  <ENDPOINT_VALUE>
1.19

$$$$
>  <MOLECULE>
CC(C)(C)n1nc(-c2ccc(Cl)cc2)c2c(N)ncnc21

>  <ENDPOINT_VALUE>
1.2

$$$$
>  <MOLECULE>
C/C(=N\NC(=O)c1ccc(C(C)(C)C)cc1)c1ccccn1

>  <ENDPOINT_VALUE>
0.982

$$$$
>  <MOLECULE>
CN1CCN(C(c2ccc(C(F)(F)F)cc2)c2ccc3cccnc3c2O)CC1 (configuration not stated)

>  <ENDPOINT_VALUE>
1.29

$$$$
>  <MOLECULE>
CCSc1nnc(NC(=O)c2ccccn2)s1

>  <ENDPOINT_VALUE>
1.14

$$$$
>  <MOLECULE>
O=C(OCn1ncc(Br)c(Br)c1=O)c1c(F)cccc1F

>  <ENDPOINT_VALUE>
1.37

$$$$
>  <MOLECULE>
COc1ccc([N+](=O)[O-])c(S(=O)(=O)c2ccccc2)n1

>  <ENDPOINT_VALUE>
1.33

$$$$
>  <MOLECULE>
CCOC(=O)c1c(C)oc2c1c(C(c1cccnc1)N1CCOCC1)c(O)c1ccccc12 (configuration not stated)

>  <ENDPOINT_VALUE>
1.21

$$$$
>  <MOLECULE>
O=[N+]([O-])c1cc(S(=O)(=O)C(F)(F)F)ccc1Sc1nc2ccccc2s1

>  <ENDPOINT_VALUE>
1.22

$$$$
>  <MOLECULE>
O=S(=O)(CCN(CCS(=O)(=O)C(F)(F)F)CC1CCCO1)C(F)(F)F (configuration not stated)

>  <ENDPOINT_VALUE>
1.2

$$$$
>  <MOLECULE>
O=[N+]([O-])c1cc(Cl)c2cccnc2c1O

>  <ENDPOINT_VALUE>
1.17

$$$$
>  <MOLECULE>
O=C(OCC(=O)N1CCN(C(=O)c2ccco2)CC1)c1cc(-c2cccc(Br)c2)nc2ccccc12

>  <ENDPOINT_VALUE>
0.965

$$$$
>  <MOLECULE>
O=C(Oc1ccnc2cc(Cl)ccc12)N1CCCCCC1

>  <ENDPOINT_VALUE>
0.997

$$$$
>  <MOLECULE>
CC(Oc1ccc(Cl)cc1)C(=O)NNC(=S)NC(=O)c1ccco1 (configuration not stated)

>  <ENDPOINT_VALUE>
1.7

$$$$
>  <MOLECULE>
O=C1ON=C(c2ccccc2)/C1=C/c1ccco1

>  <ENDPOINT_VALUE>
1.17

$$$$
>  <MOLECULE>
Cc1ccc(/C=C2/C(=O)ON=C2c2ccccc2)o1

>  <ENDPOINT_VALUE>
1.15

$$$$
